System: Aphis gossypii
Experiment: Test 3: insecticidal effect on Aphis gossypii (mortality rate)
Assay type: in vivo
Conditions: Aphis gossypii, 48 h; individual active compound, test concentration 0.1 ppm; read-out: Observed value Mortality rate
Values of pest or weed control at 0.1 ppm strictly less than 40% map to yes (1), and values of at least 40% map to no (0).

Worked set:
COCc1cc(C)ccc1C#CCCNc1ncnc2ccccc12 [compound 145] : yes (1)
FCc1ccccc1C#CCCNc1ncnc2ccccc12 [compound 99] : no (0)
FCC1=C(C#CCCNc2ncnc3ccccc23)CCCC1 [compound 391] : no (0)

(Q) Just wondering, is pest or weed control at 0.1 ppm of FC(F)(F)c1ccccc1C#CCCNc1ncnc2ccccc12 [compound 101] below 40%?
(A) yes (1)

(Q) Just wondering, is pest or weed control at 0.1 ppm of COCc1cc(Cl)ccc1C#CCCNc1ncnc2ccccc12 [compound 140] below 40%?
(A) no (0)

---

The following compounds are shown together with reported melting point values.

CC(C)(C)[Si](C)(C)C#CCCNc1ncnc2sccc12 : 190 to 192 °C
COc1ccc(Cl)cc1C#CCCNc1ncnc2ccccc12 : 147 to 149 °C
COCc1ccccc1C#CCCNc1ncnc2c(Cl)cc(Cl)cc12 : 161 to 162 °C
COc1cccc(Oc2nc(C#CCCNc3ncnc4ccccc34)cs2)c1 : 77 to 79 °C

(Q) Note down melting point recorded for `CCOC(=O)c1ccc(C#CCCNc2ncnc3ccccc23)cc1`
(A) 137 to 138 °C

---

System: Sphaerotheca fuliginea
Test: Test 1: control effect against powdery mildew on cucumber (control index)
Format: in vivo, Sphaerotheca fuliginea on cucumber (variety: SAGAMI HANJIRO)
Details: Podosphaera fuliginea, 336 h; individual active compound, test concentration 100 ppm
The following molecules are shown together with reported pest or weed control at 100 ppm values.
Field format: number, assumed %, no unit text.

CON=C(C(=O)OC)c1ccccc1CON=C(C)c1cccc(C(F)(F)F)c1 [Ec: Trifloxystrobin, trifloxystrobin] : 24
COC(=O)N(OC)c1ccccc1COc1ccn(-c2ccc(Cl)cc2)n1 [Ed: Pyraclostrobin, pyraclostrobin] : 22
CC(Cc1ccc(C(C)(C)C)cc1)CN1C[C@@H](C)O[C@@H](C)C1 (some centres unmarked) [He: Fenpropimorph, fenpropimorph] : 12
CC(C)(C)C(=O)C(Oc1ccc(Cl)cc1)n1cncn1 (centres unmarked) [Hc: Triadimefon, triadimefon] : 21

(Q) Note down pest or weed control at 100 ppm recorded for CO/N=C(/C(=O)OC)c1ccccc1COc1ccccc1C [Eb: Kresoxim-methyl, kresoxim-methyl]
(A) 29

---

The following compounds are shown together with reported melting point values.

// worked examples, melting point included
Clc1cccc(Cl)c1C#CCCNc1ncnc2ccccc12 : 153 to 155 °C
FC(F)(F)c1ccccc1C#CCC(Nc1ncnc2ccccc12)c1ccccc1 (centres unmarked) : 150 to 152 °C
N#Cc1cccc(Oc2nc(C#CCCNc3ncnc4ccccc34)cs2)c1 : 137 to 139 °C
COc1ccc(Oc2nc(C#CCCNc3ncnc4ccccc34)cs2)cc1 : 150 to 152 °C

Next:
(Q) Note down melting point recorded for `FC(F)(F)c1ccc(Cl)c(C#CCCNc2ncnc3ccccc23)c1`
(A) 144 to 145 °C

---

The following compounds are shown together with reported pest or weed control at 0.1 ppm values.
Tested on: Aphis gossypii
Assay: Test 3: insecticidal effect on Aphis gossypii (mortality rate)
Format: in vivo
Details: Aphis gossypii, 48 h; individual active compound, test concentration 0.1 ppm; read-out: Observed value Mortality rate
Field format: number, assumed %, no unit text.

// worked examples, pest or weed control at 0.1 ppm included
FC(F)c1ccccc1C#CCCNc1ncnc2ccccc12 [compound 100] : 40
OCC1=C(C#CCCNc2ncnc3ccccc23)CCCC1 [compound 390] : 41
COCc1cc(F)ccc1C#CCCNc1ncnc2ccccc12 [compound 139] : 41

(Q) Note down pest or weed control at 0.1 ppm recorded for COCc1ccccc1C#CCCNc1ncnc2ccccc12 [compound 133]
(A) 39
